Reported tissue uptake at 72 h by item:
- test.protocol: in vivo
- experimental.context: BALB/c nude, mouse, in vivo, iv, total radioactivity, % ID/g Kidney
The answer is to be given in %ID/g; state only the numeric part.

The examples below pair each entry with its known result.
{"molecule": "C[C@@H](O)[C@H](NC(=O)[C@@H]1CSSC[C@H](NC(=O)[C@@H](Cc2ccccc2)NC(=O)COCCOCCNC(=O)COCCOCCNC(=O)[C@H](CCCCNC(=O)c2cccc(NC(=O)N[C@@H]3CN(C4CCCCC4)c4ccccc4N(CC(=O)C(C)(C)C)C3=O)c2)NC(=O)CN2CCN(CC(=O)O)CCN(CC(=O)O)CCN(CC(=O)O)CC2)C(=O)N[C@@H](Cc2ccc(O)cc2)C(=O)N[C@H](Cc2c[nH]c3ccccc23)C(=O)N[C@@H](CCCCN)C(=O)N[C@@H]([C@@H](C)O)C(=O)N1)C(=O)O [Compound 177Lu-I-39, metal not drawn]", "tissue uptake at 72 h [%ID/g]": 3.2}
{"molecule": "C[C@@H](O)[C@H](NC(=O)[C@@H]1CSSC[C@H](NC(=O)[C@@H](Cc2ccccc2)NC(=O)COCCOCCNC(=O)[C@H](CCCCNC(=O)c2cccc(NC(=O)N[C@@H]3CN(C4CCCCC4)c4ccccc4N(CC(=O)C(C)(C)C)C3=O)c2)NC(=O)CN2CCN(CC(=O)O)CCN(CC(=O)O)CCN(CC(=O)O)CC2)C(=O)N[C@@H](Cc2ccc(O)cc2)C(=O)N[C@H](Cc2c[nH]c3ccccc23)C(=O)N[C@@H](CCCCN)C(=O)N[C@@H]([C@@H](C)O)C(=O)N1)C(=O)O [Compound 177Lu-I-37, metal not drawn]", "tissue uptake at 72 h [%ID/g]": 3.16}

[in] Determine from records and report tissue uptake at 72 h for C[C@@H](O)[C@H](NC(=O)[C@@H]1CSSC[C@H](NC(=O)[C@@H](Cc2ccccc2)NC(=O)[C@H](CCCCNC(=O)c2cccc(NC(=O)N[C@@H]3CN(C4CCCCC4)c4ccccc4N(CC(=O)C(C)(C)C)C3=O)c2)NC(=O)COCCOCCNC(=O)CN2CCN(CC(=O)O)CCN(CC(=O)O)CCN(CC(=O)O)CC2)C(=O)N[C@@H](Cc2ccc(O)cc2)C(=O)N[C@H](Cc2c[nH]c3ccccc23)C(=O)N[C@@H](CCCCN)C(=O)N[C@@H]([C@@H](C)O)C(=O)N1)C(=O)O [^177Lu-I-35, metal not drawn]
[out] 4.51
